# Target Desc: HIF-1α (hypoxia-inducible factor 1α) (Homo sapiens, UniProt Q16665)
# Sequence (Q16665 whole entry, looked up): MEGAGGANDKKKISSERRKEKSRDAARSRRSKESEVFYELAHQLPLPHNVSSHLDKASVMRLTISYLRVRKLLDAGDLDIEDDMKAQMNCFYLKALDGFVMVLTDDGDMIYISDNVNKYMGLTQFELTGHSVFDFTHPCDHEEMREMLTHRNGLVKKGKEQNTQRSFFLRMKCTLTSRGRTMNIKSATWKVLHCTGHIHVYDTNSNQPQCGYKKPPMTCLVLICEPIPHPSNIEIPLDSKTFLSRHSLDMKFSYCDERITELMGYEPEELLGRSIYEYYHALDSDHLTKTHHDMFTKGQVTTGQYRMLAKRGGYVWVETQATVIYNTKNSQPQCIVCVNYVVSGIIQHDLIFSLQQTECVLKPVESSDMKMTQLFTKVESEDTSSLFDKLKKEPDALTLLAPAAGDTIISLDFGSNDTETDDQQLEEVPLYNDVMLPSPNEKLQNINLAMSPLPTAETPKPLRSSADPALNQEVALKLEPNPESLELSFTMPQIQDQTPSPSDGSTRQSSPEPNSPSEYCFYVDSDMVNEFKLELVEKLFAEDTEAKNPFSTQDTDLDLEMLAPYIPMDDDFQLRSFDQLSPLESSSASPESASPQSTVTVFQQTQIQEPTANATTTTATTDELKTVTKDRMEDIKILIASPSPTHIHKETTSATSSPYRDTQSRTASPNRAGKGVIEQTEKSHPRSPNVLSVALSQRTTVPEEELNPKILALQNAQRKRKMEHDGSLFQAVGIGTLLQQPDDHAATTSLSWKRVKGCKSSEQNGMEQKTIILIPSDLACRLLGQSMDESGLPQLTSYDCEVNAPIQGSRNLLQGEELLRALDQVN
# Procedure Summary: Evaluation of HIF-1α inhibitory activity (in vitro)
# Conditions Used: HIF-1α inhibitory activity
I'd appreciate it if you could supply IC50 values for the items below.
Field format: number, assumed µM, no unit text.

*Q* # input compound: COc1ccc(C(C)C(=O)c2ccc(N3CCOCC3)cc2)cc1OC (centres unmarked) ; wanted: its IC50
*A* 6.85

*Q* # input compound: COc1ccc(C(C)C(=O)c2ccc(NCc3ccc(C#N)cc3)cc2OC)cc1OC (centres unmarked) ; wanted: its IC50
*A* 0.6

*Q* # input compound: CCOc1ccc(C(=O)C(C)c2ccc(OC)c(OC)c2)c(OC)c1 (centres unmarked) ; wanted: its IC50
*A* 11.7

*Q* # input compound: COc1ccc(C(C)C(=O)c2ccc(N3CCCC3)cc2OC)cc1OC (centres unmarked) ; wanted: its IC50
*A* 2.82

*Q* # input compound: COc1ccc(C(C)C(=O)c2ccc(NCc3ccccc3)cc2OC)cc1OC (centres unmarked) ; wanted: its IC50
*A* 1.43

*Q* # input compound: COc1cc(N2CCCCC2)ccc1C(=O)C(C)c1ccccc1F (centres unmarked) ; wanted: its IC50
*A* 6.52

*Q* # input compound: COc1ccc(C(C)C(=O)c2ccc(N3CCCCC3)cc2OC)cc1OC (centres unmarked) ; wanted: its IC50
*A* 1.85

*Q* # input compound: COc1ccc(C(C)C(=O)c2ccc(N3CCOCC3)cc2OC)cc1OC (centres unmarked) ; wanted: its IC50
*A* 8.74

*Q* # input compound: CC(C(=O)c1ccc(N2CCCCC2)cc1)c1ccccc1F (centres unmarked) ; wanted: its IC50
*A* 2.06

*Q* # input compound: COc1ccc(C(C)C(=O)c2ccc(OC3CCCCC3)cc2OC)cc1OC (centres unmarked) ; wanted: its IC50
*A* 2.59

*Q* # input compound: COc1cc(NCc2ccc(C#N)cc2)ccc1C(=O)C(C)c1ccccc1F (centres unmarked) ; wanted: its IC50
*A* 5.28

*Q* # input compound: CC(C(=O)c1ccc(NCc2ccccc2)cc1)c1ccccc1F (centres unmarked) ; wanted: its IC50
*A* 7.35
